Data credit: patent US20190367619A1

# binding signal (nm) values compiled below
test target: T1, human galectin-10-His (recombinant human galectin-10 with TEV-cleavable N-terminal His-tag) (human)
T1 construct: SEC-MALLS: dimer in solution; also called Gal10-His; humanGal10-His
T1 chain: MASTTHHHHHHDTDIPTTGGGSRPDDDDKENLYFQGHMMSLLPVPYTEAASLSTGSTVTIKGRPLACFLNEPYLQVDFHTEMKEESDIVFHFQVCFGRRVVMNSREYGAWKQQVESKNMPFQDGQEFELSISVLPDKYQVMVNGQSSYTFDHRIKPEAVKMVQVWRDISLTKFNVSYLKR
procedure summary: BLI tandem on galectin-10-His; competitor: saturating 6B06 mIgG1 (10 ug/mL)
parameter measured: binding signal (nm)

binder="6F06 mouse IgG1 (antibody, V domains shown, also called 6F06 mIgG1) VH: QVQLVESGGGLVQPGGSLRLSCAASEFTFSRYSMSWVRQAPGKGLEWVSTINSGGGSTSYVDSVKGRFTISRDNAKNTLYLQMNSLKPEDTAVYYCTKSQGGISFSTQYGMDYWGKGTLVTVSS VL: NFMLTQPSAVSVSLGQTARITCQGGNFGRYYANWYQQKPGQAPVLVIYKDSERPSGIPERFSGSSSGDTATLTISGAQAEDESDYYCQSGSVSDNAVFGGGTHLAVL" assay_value="0.03 nm"
binder="4E08 mouse IgG1 (antibody, V domains shown, VH on mouse IgG1 heavy chain constant domains (CH1-CH2-CH3), VL on mouse lambda light chain constant domain; also called 4E8; 4E08 mIgG1) VH: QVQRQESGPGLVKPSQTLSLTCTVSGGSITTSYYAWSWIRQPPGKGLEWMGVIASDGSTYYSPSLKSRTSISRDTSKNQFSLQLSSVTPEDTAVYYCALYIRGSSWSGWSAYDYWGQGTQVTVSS VL: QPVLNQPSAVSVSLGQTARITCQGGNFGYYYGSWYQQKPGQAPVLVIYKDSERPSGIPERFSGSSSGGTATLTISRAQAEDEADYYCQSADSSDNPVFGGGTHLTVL" assay_value="0 nm"
binder="6E10 mouse IgG1 (antibody, V domains shown, also called 6E010; 6E10 mIgG1) VH: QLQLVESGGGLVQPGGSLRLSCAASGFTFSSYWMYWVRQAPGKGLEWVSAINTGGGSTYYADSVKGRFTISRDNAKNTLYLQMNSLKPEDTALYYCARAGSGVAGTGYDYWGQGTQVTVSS VL: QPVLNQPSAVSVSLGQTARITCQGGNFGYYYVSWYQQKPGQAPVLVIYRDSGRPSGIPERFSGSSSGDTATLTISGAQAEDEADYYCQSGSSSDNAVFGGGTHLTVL" assay_value="0.04 nm"
